system: Vero E6 infected with SARS-CoV-2; experiment: inhibition of SARS-CoV-2 cytopathic effect; higher = more antiviral protection, active = above 15; settings: 833.33 nM; 48 h
propertyLabel: inhibition of SARS-CoV-2 cytopathic effect (%)
Response body: numeric value in %, unit text excluded.

CN1C(=O)C(F)=C[C@]2(C)[C@H]3CC[C@]4(C)[C@@H](C(=O)NCc5nc6cccnc6[nH]5)CC[C@H]4[C@@H]3CC[C@@H]12 = 2.35
O[C@H]([C@H](O)[C@@H]1CO1)[C@H]1CO1 [dianhydrogalactitol] = 0.41
CNC(=C[N+](=O)[O-])NCCSCc1ccc(CN(C)C)o1 [ranitidine] = 0.8
C[N+]1(C)[C@@H]2C[C@@H](OC(=O)C(O)(c3cccs3)c3cccs3)C[C@H]1[C@@H]1O[C@@H]12 [tiotropium] = -5.08

Could you tell me which inhibition of SARS-CoV-2 cytopathic effect is on file for COc1cc(/C=C2\CCC/C(=C\c3ccc(O)c(OC)c3)C2=O)ccc1O [cyclovalone] ?
6.64

Could you tell me which inhibition of SARS-CoV-2 cytopathic effect is on file for Nc1ncc2c(n1)CC(c1ccco1)CC2=O (configuration not stated) ?
4.74

Could you tell me which inhibition of SARS-CoV-2 cytopathic effect is on file for C[C@@H](O)[C@H]1C(=O)N2C(C(=O)O)=C(S[C@@H]3CN[C@H](CNS(N)(=O)=O)C3)[C@H](C)[C@H]12 [doripenem] ?
-0.35

Could you tell me which inhibition of SARS-CoV-2 cytopathic effect is on file for `CCc1ccc(OCc2ccccc2C(=O)Nc2ccc3nc(C)cc(N)c3c2)cc1` ?
1.94

Could you tell me which inhibition of SARS-CoV-2 cytopathic effect is on file for CC1=C(/C=C/C(C)=C/C=C/C(C)=C/C=C/C=C(C)/C=C/C=C(C)/C=C/C2=C(C)C(=O)[C@@H](O)CC2(C)C)C(C)(C)C[C@H](O)C1=O [astaxanthin] ?
-8.76

Could you tell me which inhibition of SARS-CoV-2 cytopathic effect is on file for CC(=O)NC1CCSC1=O (configuration not stated) [citiolone] ?
-4.01

Could you tell me which inhibition of SARS-CoV-2 cytopathic effect is on file for CC[C@H](C)C[C@H](C)CCCCCCCCC(=O)N[C@H]1C[C@@H](O)[C@@H](NCCN)NC(=O)[C@@H]2[C@@H](O)CCN2C(=O)[C@H]([C@H](O)CCN)NC(=O)[C@H]([C@H](O)[C@@H](O)c2ccc(O)cc2)NC(=O)[C@@H]2C[C@@H](O)CN2C(=O)[C@H]([C@@H](C)O)NC1=O [caspofungin] ?
0.425

Could you tell me which inhibition of SARS-CoV-2 cytopathic effect is on file for CO[C@H]1/C=C/O[C@@]2(C)Oc3c(C)c(O)c4c(O)c(c5c(nc6cc(C)ccn65)c4c3C2=O)NC(=O)/C(C)=C\C=C\[C@H](C)[C@H](O)[C@@H](C)[C@@H](O)[C@@H](C)[C@H](OC(C)=O)[C@@H]1C [rifaximin] ?
-3.72

Could you tell me which inhibition of SARS-CoV-2 cytopathic effect is on file for COC(=O)[C@@H](N)CS [mecysteine] ?
2.25

Could you tell me which inhibition of SARS-CoV-2 cytopathic effect is on file for CN1CCCCC1Cn1cc(C(=O)c2cc([N+](=O)[O-])ccc2I)c2ccccc21 (configuration not stated) ?
-2.69

Could you tell me which inhibition of SARS-CoV-2 cytopathic effect is on file for O=C(NC(Cc1cc(=O)[nH]c2ccccc12)C(=O)O)c1ccc(Cl)cc1 (configuration not stated) [rebamipide] ?
2.91

Could you tell me which inhibition of SARS-CoV-2 cytopathic effect is on file for COC(=O)Nc1nc2cc(Sc3ccccc3)ccc2[nH]1 [fenbendazole] ?
0.61

Could you tell me which inhibition of SARS-CoV-2 cytopathic effect is on file for CC(C)NC(=N)NC(=N)Nc1ccc(Cl)cc1 [proguanil] ?
-1.01
